B1: Membrane-associated guanylate kinase, WW and PDZ domain-containing protein 2, residues 601 to 682; numbered along this chain, Q86UL8 (parent)
chain: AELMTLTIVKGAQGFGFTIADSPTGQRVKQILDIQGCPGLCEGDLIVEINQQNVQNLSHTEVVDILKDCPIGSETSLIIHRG

variants of: B1; experiment: abundance fitness (aPCA) (normalised: wild type 0, dead -1); higher = more abundant; growth selection in yeast, the domain comes from the species named; conditions: Homo sapiens
Mark 1.0 for reported abundance fitness of -0.09 or greater; mark 0.0 for anything smaller.

Illustrative cases are given below, each with its answer.
# mutations, qualitative_label
measured = [
    ("D64F", 0.0),
    ("A20R", 0.0),
    ("Q55R", 1.0),
]

State whether the measured abundance fitness reaches -0.09, counting equality as reaching it, for V47A 1.0

Could you please find out whether G43S has abundance fitness that meets -0.09 or exceeds it? 0.0

Record H59L ; criterion: abundance fitness no lower than -0.09. Met? 1.0

# check: abundance fitness of T18Y is greater than or equal to -0.09 1.0

For this variant, is measured abundance fitness -0.09 or higher? Q35Y 1.0

Check the entry C37K : does abundance fitness equal or exceed -0.09? 0.0
